# Target Of Assay: ScRvs167
# Test: SPOT peptide array binding signal intensity (averaged, normalized) (arbitrary units (background-subtracted, floor 0; scale differs between SH3 domains)); higher = stronger binding of the SH3 domain to the peptide
For each of the binders below, state its SPOT peptide array binding signal intensity.

These solved cases illustrate the format of a correct answer.
VLRFLGFPLPIFEKG: ≤ 0
STKKPRPPVKSKPKH: ≤ 0

Next, consider the following binder.
Prompt: For the binder PELAPKREAPKPPAN , what SPOT peptide array binding signal intensity is on record?
Response: ≤ 0
